- tested.target: T1, recombinant purified human IL-12 p70 (human, UniProt P29459 23-219)
- T1 sequence 1: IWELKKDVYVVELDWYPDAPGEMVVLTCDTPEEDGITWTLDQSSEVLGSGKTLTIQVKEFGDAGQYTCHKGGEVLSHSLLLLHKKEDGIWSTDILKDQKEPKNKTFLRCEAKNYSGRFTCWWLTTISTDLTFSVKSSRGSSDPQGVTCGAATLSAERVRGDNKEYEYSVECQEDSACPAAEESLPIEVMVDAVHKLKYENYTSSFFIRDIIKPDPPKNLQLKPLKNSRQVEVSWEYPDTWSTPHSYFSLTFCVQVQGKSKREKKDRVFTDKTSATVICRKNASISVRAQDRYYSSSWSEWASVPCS
- T1 sequence 2: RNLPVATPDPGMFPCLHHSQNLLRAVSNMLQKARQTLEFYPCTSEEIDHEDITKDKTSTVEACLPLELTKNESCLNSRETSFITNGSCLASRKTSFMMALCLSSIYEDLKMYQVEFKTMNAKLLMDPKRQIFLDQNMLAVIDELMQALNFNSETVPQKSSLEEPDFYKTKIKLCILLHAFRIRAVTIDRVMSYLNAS
- procedure.details: cell-based or functional assay
Quick rule for you: Av. IC50 (nM) Hu IL-12, PHA blast assay at 0.6 nM or higher means Yes, lower means No.

binder="CDR grafted anti IL-12p40 antibody 1A6.2 (antibody, human IgG1, kappa, L234A L235A, V domains shown, Full-length CDR-grafted antibody, COS cells) VH: EVTLKESGPVLVKPTETLTLTCTVSGFSLSTSGMGVSWIRQPPGKALEWLAHIWWDGDNYYNPSLKSRLTISKDTSKSQVVLTMTNMDPVDTATYYCARRTRVNYAMDYWGQGTTVTVSS VL: EIVMTQSPATLSVSPGERATLSCKASQSVSNDVAWYQQKPGQAPRLLIYYASNRYTGIPARFSGSGSGTEFTLTISSLQSEDFAVYYCQQDYNSPWTFGGGTKVEIKR" class_label=Yes
binder="CDR grafted anti IL-12p40 antibody 1A6.5 (antibody, human IgG1, kappa, L234A L235A, V domains shown, Full-length CDR-grafted antibody, COS cells) VH: EVTLRESGPALVKPTQTLTLTCTFSGFSLSTSGMGVSWIRQPPGKALEWLAHIWWDGDNYYNPSLKSRLTISKDTSKNQVVLTMTNMDPVDTATYYCARRTRVNYAMDYWGQGTTVTVSS VL: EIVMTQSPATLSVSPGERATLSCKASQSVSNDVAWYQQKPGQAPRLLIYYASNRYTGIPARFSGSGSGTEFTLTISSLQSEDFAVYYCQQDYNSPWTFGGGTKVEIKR" class_label=Yes
binder="CDR grafted anti IL-12p40 antibody 1A6.1 (antibody, human IgG1, kappa, L234A L235A, V domains shown, Full-length CDR-grafted antibody, COS cells) VH: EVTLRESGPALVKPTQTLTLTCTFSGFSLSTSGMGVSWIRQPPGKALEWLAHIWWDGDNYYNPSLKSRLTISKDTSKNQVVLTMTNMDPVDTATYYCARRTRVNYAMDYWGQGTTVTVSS VL: DIVMTQSPDSLAVSLGERATINCKASQSVSNDVAWYQQKPGQPPKLLIYYASNRYTGVPDRFSGSGSGTDFTLTISSLQAEDVAVYYCQQDYNSPWTFGGGTKVEIKR" class_label=No
binder="CDR grafted anti IL-12p40 antibody 3G7.1 (antibody, human IgG1, kappa, L234A L235A, V domains shown, Full-length CDR-grafted antibody, COS cells) VH: EVQLVQSGAEVKKPGSSVKVSCKASGGTFSDYWIEWVRQAPGQGLEWMGGFSHGSGSTNYNEKFKGRVTITADKSTSTAYMELSSLRSEDTAVYYCARRRFRGMDYWGQGTTVTVSS VL: DIVMTQSPDSLAVSLGERATINCKASQSVSNDVAWYQQKPGQPPKLLIYYASNRYTGVPDRFSGSGSGTDFTLTISSLQAEDVAVYYCQQDYSSPWSFGGGTKVEIKR" class_label=No
binder="CDR grafted anti IL-12p40 antibody 1D4.3 (antibody, human IgG1, kappa, L234A L235A, V domains shown, Full-length CDR-grafted antibody, COS cells) VH: EVTLRESGPALVKPTQTLTLTCTFSGFSLSKSVMGVSWIRQPPGKALEWLAHIYWDDDKYYNPSLKSRLTISKDTSKNQVVLTMTNMDPVDTATYYCARRGIRSAMDYWGQGTTVTVSS VL: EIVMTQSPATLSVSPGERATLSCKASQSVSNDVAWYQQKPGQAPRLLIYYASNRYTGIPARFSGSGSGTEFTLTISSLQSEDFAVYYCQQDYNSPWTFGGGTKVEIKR" class_label=Yes

The measured values listed here are drawn from patent US20140178332A1.
